# Study system: human activated kallikrein enzyme (Homo sapiens, UniProt P03952)
# Sequence (P03952 391-638 limits assumed): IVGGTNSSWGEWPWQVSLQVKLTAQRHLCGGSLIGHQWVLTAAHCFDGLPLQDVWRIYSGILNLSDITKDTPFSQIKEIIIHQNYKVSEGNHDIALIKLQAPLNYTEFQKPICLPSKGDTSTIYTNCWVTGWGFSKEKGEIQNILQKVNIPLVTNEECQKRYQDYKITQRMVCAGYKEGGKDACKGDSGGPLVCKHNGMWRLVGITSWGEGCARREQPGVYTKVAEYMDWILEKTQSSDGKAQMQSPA
# Sequence (P03952 20-390 partner limits assumed): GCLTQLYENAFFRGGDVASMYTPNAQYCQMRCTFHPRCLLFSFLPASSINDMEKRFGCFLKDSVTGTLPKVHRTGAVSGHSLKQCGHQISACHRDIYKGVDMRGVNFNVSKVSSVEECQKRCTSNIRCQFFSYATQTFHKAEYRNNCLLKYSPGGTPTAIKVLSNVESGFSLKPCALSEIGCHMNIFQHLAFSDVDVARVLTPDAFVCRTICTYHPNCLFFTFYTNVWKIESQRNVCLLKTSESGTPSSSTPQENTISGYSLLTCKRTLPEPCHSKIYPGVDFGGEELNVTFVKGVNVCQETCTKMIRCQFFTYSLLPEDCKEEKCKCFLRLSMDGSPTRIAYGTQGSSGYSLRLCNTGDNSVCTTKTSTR
# Assay procedure: Inhibition of activated plasma kallikrein, fluorogenic peptide substrate (PFR-AMC) assay, 500 pM enzyme format
# Stated conditions: 500 pM activated kallikrein, 300 uM PFR-AMC, 30 min preincubation, 10 min reaction, room temperature; read-out: Primary Dose Response Assay: Average EC50
Listed molecules paired with reported EC50

{"Molecule": "Cc1ccnc([C@H]2C[C@@H]2C2=NS(=O)(=O)c3ccc(NC(C)c4cn5cc(C6CC6)ccc5n4)cc3N2)n1 (some centres unmarked)", "EC50": "≤ 1 nM"}
{"Molecule": "Cc1ccnc([C@H]2C[C@@H]2c2ccc3c(ncn3Cc3cn4cc(C5CC5)cc(N5CC(=O)N(C)C5=O)c4n3)n2)n1 (racemic)", "EC50": "100 to 6500 nM"}
{"Molecule": "O=c1cc(C2C[C@@H]2c2cccc(Cl)c2)[nH]c2cc(NCc3cn4cc(C5CC5)ccc4n3)ccc12 (mixture of isomers)", "EC50": "1 to 10 nM"}
{"Molecule": "Cc1ccnc([C@H]2C[C@@H]2c2ccc3ccc(NCc4cn5cc(C6CC6)cc(N6CC(=O)NC6=O)c5n4)cc3n2)n1 (racemic)", "EC50": "≤ 1 nM"}
{"Molecule": "Cc1ccnc([C@H]2C[C@@H]2c2ccc3ccc(NCc4cn5cc(C6CC6)cc(N6CC(=O)N(C)C6=O)c5n4)cc3n2)n1 (racemic) [Example 57]", "EC50": "≤ 1 nM"}
